# EXPERIMENTAL_TARGET: kappa opioid receptors (KOR) (Homo sapiens, UniProt P41145)
# Sequence (P41145 whole entry): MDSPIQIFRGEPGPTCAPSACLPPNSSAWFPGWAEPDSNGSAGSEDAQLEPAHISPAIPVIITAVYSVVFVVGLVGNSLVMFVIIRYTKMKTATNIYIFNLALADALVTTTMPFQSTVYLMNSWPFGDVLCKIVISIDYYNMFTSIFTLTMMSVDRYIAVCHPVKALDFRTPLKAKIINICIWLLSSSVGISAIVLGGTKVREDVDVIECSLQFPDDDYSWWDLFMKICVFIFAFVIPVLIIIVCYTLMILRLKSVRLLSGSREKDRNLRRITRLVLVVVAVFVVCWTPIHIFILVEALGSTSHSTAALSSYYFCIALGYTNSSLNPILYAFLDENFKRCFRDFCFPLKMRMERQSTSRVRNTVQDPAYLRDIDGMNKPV
# TEST_DESCRIPTION: PDSP radioligand binding at KOR
# pKi per record follows
pKi here is simply -log10 of the concentration when that concentration is written in mol/L.

Guide cases for pKi, answers given:
CCc1noc(-c2ncn3c2CN=C(c2ccccc2F)c2cc(C4CC4)ccc2-3)n1 | 6.68
C[C@H]1N=C(c2ccccc2F)c2cc(Cl)ccc2-n2cnc(-c3nc(C4CC4)no3)c21 | 7.08
C#Cc1ccc2c(c1)C(c1ccccc1F)=N[C@H](C)c1c(C(=S)N(C)C)ncn1-2 | 6.40
C[C@H]1N=C(c2ccccc2F)c2cc(Cl)ccc2-n2cnc(C(=O)N(C)C)c21 | 6.14
C#Cc1ccc2c(c1)C(c1ccccc1Cl)=N[C@H](C)c1c(C(=O)NC)ncn1-2 | 6.18

Consider now this further compound.
Item CCc1noc(-c2ncn3c2[C@@H](C)N=C(c2ccccc2F)c2cc(Cl)ccc2-3)n1 has what recorded pKi?
6.98

###

# EXPERIMENTAL_TARGET: MOR (Homo sapiens, UniProt P35372)
# Construct: purchased NIMH Psychoactive Drug Screening Program (PDSP)
# Sequence (P35372 whole entry): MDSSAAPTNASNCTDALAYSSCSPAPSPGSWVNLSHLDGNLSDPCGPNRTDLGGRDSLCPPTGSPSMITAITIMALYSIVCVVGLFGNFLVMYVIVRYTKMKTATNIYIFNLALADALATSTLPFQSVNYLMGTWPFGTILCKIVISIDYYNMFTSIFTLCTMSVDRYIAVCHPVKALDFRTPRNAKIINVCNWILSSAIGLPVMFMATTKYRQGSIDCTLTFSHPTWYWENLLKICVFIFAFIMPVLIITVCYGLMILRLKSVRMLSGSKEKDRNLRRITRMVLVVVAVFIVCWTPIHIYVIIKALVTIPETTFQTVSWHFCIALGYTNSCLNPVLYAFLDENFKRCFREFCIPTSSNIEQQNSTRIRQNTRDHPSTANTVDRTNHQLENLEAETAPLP
# TEST_DESCRIPTION: PDSP radioligand binding at MOR
# CONDITION: 1.5 h; at 10,000 nM; N = 5; [3H]-DAMGO 1.20 nM; read-out: Primary Binding %MOR
# Method: Opioid receptors are a family of inhibitory G-coupled protein receptors where opioids act as the ligand. […] The affinities of the test compounds for KOR, DOR, and MOR were determined using radioligand binding assays at a screening concentration of 10,000 nM in collaboration with the National Institute of Mental Health’s Psychoactive Drug Screening Program (PDSP), as mentioned before. […]
The threshold is inclusive: inhibition at 10 µM of exactly 10% counts as label 1; values below receive label 0.

Evaluate CC(C)c1noc(-c2ncn3c2[C@@H](C)N=C(c2ccccc2F)c2cc(Cl)ccc2-3)n1 : inhibition at 10 µM at minimum 10%?
label 1

Evaluate CCc1noc(-c2ncn3c2CN=C(c2ccccc2F)c2cc(C4CC4)ccc2-3)n1 : inhibition at 10 µM at minimum 10%?
label 1

Evaluate C#Cc1ccc2c(c1)C(c1ccccc1Cl)=N[C@H](C)c1c(C(=O)NC)ncn1-2 : inhibition at 10 µM at minimum 10%?
label 0

Evaluate C[C@H]1N=C(c2ccccc2F)c2cc(Cl)ccc2-n2cnc(-c3nc(C4CC4)no3)c21 : inhibition at 10 µM at minimum 10%?
label 1

Evaluate C[C@H]1N=C(c2ccccc2F)c2cc(-c3ccccc3)ccc2-n2cnc(C(=O)N(C)C)c21 : inhibition at 10 µM at minimum 10%?
label 0

Evaluate C[C@H]1N=C(c2ccccc2F)c2cc(Cl)ccc2-n2cnc(C(=O)N(C)C)c21 : inhibition at 10 µM at minimum 10%?
label 1

Evaluate C#Cc1ccc2c(c1)C(c1ccccn1)=N[C@@H](C)c1c(C(=O)NC)ncn1-2 : inhibition at 10 µM at minimum 10%?
label 0

Evaluate CCc1noc(-c2ncn3c2[C@@H](C)N=C(c2ccccc2F)c2cc(C4CC4)ccc2-3)n1 : inhibition at 10 µM at minimum 10%?
label 1

###

# Test system: BZP rat brain site
# TEST_DESCRIPTION: PDSP binding at BZP rat brain site
# CONDITION: at 10,000 nM; N = 5; rat brain
Response field label takes Yes when Binding Affinity BZR % Inhibition (Primary) is strictly below 80% and No in all other cases.

# example entries with known answers
C[C@H]1N=C(c2ccccc2F)c2cc(-c3ccccc3)ccc2-n2cnc(C(=O)N(C)C)c21 | No
CCc1noc(-c2ncn3c2CN=C(c2ccccc2F)c2cc(C4CC4)ccc2-3)n1 | No
CCc1noc(-c2ncn3c2[C@@H](C)N=C(c2ccccc2F)c2cc(C4CC4)ccc2-3)n1 | Yes
C#Cc1ccc2c(c1)C(c1ccccc1Cl)=N[C@H](C)c1c(C(=O)N(C)CC)ncn1-2 | No
CCc1noc(-c2ncn3c2[C@@H](C)N=C(c2ccccc2F)c2cc(-c4ccccc4)ccc2-3)n1 | Yes
C#Cc1ccc2c(c1)C(c1ccccn1)=N[C@@H](C)c1c(C(=O)N(C)C)ncn1-2 | No

Binding Affinity BZR % Inhibition (Primary) strictly < 80% for this compound? C#Cc1ccc2c(c1)C(c1ccccc1Cl)=N[C@H](C)c1c(C(=O)NC)ncn1-2
No

Binding Affinity BZR % Inhibition (Primary) strictly < 80% for this compound? C#Cc1ccc2c(c1)C(c1ccccn1)=N[C@@H](C)c1c(C(=O)NC)ncn1-2
Yes
